- measured_on: Vitamin K-dependent protein C (Homo sapiens)
- Sequence (P04070 43-197 limits assumed): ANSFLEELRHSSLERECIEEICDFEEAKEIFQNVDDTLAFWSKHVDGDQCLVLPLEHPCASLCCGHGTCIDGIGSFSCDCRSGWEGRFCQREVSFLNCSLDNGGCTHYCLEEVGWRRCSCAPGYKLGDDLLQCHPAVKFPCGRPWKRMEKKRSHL
- Sequence (P04070 212-461 limits assumed): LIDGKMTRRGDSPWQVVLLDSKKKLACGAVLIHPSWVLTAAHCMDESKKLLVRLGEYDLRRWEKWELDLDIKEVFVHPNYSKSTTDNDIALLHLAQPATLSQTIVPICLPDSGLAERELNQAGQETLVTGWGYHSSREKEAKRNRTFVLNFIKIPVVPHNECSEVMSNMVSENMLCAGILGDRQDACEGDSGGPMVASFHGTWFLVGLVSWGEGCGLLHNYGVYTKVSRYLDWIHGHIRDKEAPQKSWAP
- assay_overview: Inhibition of human activated Protein C using Mes-DArg-Pro-Arg-AMC as substrate by Dixon plot analysis
Below, each entry is listed with its recorded Ki.

1. COC(=O)N[C@@H]1Cc2ccc(cc2)NC(=O)CCN2CCN(CCC(=O)Nc3ccc(cc3)C[C@@H](C(=O)NCc3ccc(C(=N)N)cc3)NC1=O)CC2 = 51.5 µM
2. N=C(N)c1ccc(CNC(=O)[C@@H]2Cc3ccc(cc3)NC(=O)CCN3CCN(CCC(=O)Nc4ccc(cc4)C[C@@H](NC(=O)CCCc4ccccc4)C(=O)N2)CC3)cc1 = 39.7 µM

# context switch: different compound, same Ki
Exercise: So what's the measured Ki for this one? NCc1ccc(CNC(=O)[C@@H]2Cc3ccc(cc3)NC(=O)CCN3CCN(CCC(=O)Nc4ccc(cc4)C[C@@H](NS(=O)(=O)NC4CCCCC4)C(=O)N2)CC3)cc1
Solution: > 100 µM
